# System: Plasmopara viticola
# method: Plasmopara test (grapevines)/preventive
# Type: in vivo
# conditions: preventive spray, 10 ppm of active ingredient, evaluated 6 days after inoculation, 0% = untreated control, 100% = no disease
measure.name: Eff. % (%)
One number for each entry, in %.

The cases that follow already have their Eff. % on record.
Cn1nnnc1C(=NOCc1csc(NC(=O)COCc2ccccc2)n1)c1ccccc1 :: 100
Cc1nnnn1C(=NOCc1csc(NC(=O)COCC2CCC2)n1)c1ccccc1 :: 91
Cn1nnnc1C(=NOCc1csc(NC(=O)COCC2CCC2)n1)c1ccccc1 :: 100
Cc1nnnn1C(=NOCc1cccc(NC(=O)COCC2CCC2)n1)c1ccccc1 :: 80

Attention now turns to another entry.
Notebook: CC(OCC1CCC1)C(=O)Nc1cccc(CON=C(c2ccccc2)c2nnnn2C)n1 (centres unmarked) , Eff. % read as 84

* * *

# Tested on: Plasmopara viticola
# method: Plasmopara test (grapevines)/preventive
# Type: in vivo
# conditions: preventive spray, 10 ppm of active ingredient, evaluated 6 days after inoculation, 0% = untreated control, 100% = no disease
measure.name: Eff. % (%)
Give bare numbers, in %.

CC(OCc1ccccc1)C(=O)Nc1nc(CON=C(c2ccccc2)c2nnnn2C)cs1 (stereo not drawn) :: 92
Cn1nnnc1C(=NOCc1cccc(NC(=O)CSCC2CC2)n1)c1ccccc1 :: 78
Cn1nnnc1C(=NOCc1cccc(NC(=O)COCc2ccccc2)n1)c1ccccc1 :: 96
Cn1nnnc1C(=NOCc1csc(NC(=O)COCC2CCCC2)n1)c1ccccc1 :: 90
CC(OCC1CCCO1)C(=O)Nc1nc(CON=C(c2ccccc2)c2nnnn2C)cs1 (stereo not drawn) :: 85

List the reported Eff. % of each compound below.
1. CC(C)CCOCC(=O)Nc1nc(CON=C(c2ccccc2)c2nnnn2C)cs1
2. Cn1nnnc1C(=NOCc1csc(NC(=O)COCC2CC2)n1)c1ccccc1
3. Cc1nnnn1C(=NOCc1csc(NC(=O)COCC2CC2)n1)c1ccccc1
4. Cn1nnnc1C(=NOCc1cccc(NC(=O)COCC2CCC2)n1)c1ccccc1

Output:
1. 91
2. 79
3. 94
4. 80

* * *

# method: Measurement of logP values by HPLC on reversed phase columns (EEC directive 79/831 Annex V.A8)
# Assay type: physicochemical
# conditions: pH 2.7, 0.1% formic acid in water / acetonitrile gradient, calibration with alkan-2-ones
measure.name: Log P

Cn1nnnc1C(=NOCc1cccc(NC(=O)C(C)(C)CSC2CCCCC2)n1)c1ccccc1 :: 4.98
CC(OCC1CCCCO1)C(=O)Nc1nc(CON=C(c2ccccc2)c2nnnn2C)cs1 (stereo not shown) :: 3.62
Cn1nnnc1C(=NOCc1csc(NC(=O)COCC2CC2)n1)c1ccccc1 :: 3.04

Documented Log P of Cn1nnnc1C(=NOCc1cccc(NC(=O)OCCCOC2CCCC2)n1)c1ccccc1 : 4.14

* * *

# method: Measurement of logP values by HPLC on reversed phase columns (EEC directive 79/831 Annex V.A8)
# Assay type: physicochemical
# conditions: pH 2.7, 0.1% formic acid in water / acetonitrile gradient, calibration with alkan-2-ones
measure.name: Log P
Answers are plain numbers.

Field: example entries. Status: answers known.
Cc1nnnn1C(=NOCc1csc(NC(=O)COCC2CCCC2)n1)c1ccccc1 :: 3.94
Cc1nnnn1C(=NOCc1cccc(NC(=O)CSC2CCCC2)n1)c1ccccc1 :: 3.92
Cc1nnnn1C(=NOCc1csc(NC(=O)C(C)OCC2CCC2)n1)c1ccccc1 (stereo not shown) :: 3.9

Now take the following compound into account.
Consider CC(OCC(=O)Nc1cccc(CON=C(c2ccccc2)c2nnnn2C)n1)c1ccccc1 (stereo not shown) . Its measured Log P is 3.94
